Documented EC50 hC3 cleavage across a set of binders
- targetEntity: plasma purified human complement protein C3 (human) (UniProt P01024)
- Sequence (P01024 23-667, chain 1 of 2): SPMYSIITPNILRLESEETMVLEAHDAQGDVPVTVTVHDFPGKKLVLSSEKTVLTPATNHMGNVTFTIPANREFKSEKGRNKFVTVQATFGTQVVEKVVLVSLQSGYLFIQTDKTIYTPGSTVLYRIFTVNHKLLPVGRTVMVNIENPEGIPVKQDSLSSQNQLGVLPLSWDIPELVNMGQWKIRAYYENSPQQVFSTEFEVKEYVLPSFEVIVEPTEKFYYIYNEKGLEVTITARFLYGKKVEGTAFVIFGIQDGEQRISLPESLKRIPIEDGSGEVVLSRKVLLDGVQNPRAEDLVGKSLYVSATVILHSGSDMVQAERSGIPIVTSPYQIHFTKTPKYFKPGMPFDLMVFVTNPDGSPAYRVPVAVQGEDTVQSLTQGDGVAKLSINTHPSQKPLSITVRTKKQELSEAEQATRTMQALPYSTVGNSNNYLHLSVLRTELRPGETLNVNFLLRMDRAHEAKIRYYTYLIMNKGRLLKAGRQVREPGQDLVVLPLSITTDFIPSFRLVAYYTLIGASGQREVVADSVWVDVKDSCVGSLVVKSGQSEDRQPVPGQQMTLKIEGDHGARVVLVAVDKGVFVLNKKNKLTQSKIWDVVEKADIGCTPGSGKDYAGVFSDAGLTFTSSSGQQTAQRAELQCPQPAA
- Sequence (P01024 672-1663, chain 2 of 2): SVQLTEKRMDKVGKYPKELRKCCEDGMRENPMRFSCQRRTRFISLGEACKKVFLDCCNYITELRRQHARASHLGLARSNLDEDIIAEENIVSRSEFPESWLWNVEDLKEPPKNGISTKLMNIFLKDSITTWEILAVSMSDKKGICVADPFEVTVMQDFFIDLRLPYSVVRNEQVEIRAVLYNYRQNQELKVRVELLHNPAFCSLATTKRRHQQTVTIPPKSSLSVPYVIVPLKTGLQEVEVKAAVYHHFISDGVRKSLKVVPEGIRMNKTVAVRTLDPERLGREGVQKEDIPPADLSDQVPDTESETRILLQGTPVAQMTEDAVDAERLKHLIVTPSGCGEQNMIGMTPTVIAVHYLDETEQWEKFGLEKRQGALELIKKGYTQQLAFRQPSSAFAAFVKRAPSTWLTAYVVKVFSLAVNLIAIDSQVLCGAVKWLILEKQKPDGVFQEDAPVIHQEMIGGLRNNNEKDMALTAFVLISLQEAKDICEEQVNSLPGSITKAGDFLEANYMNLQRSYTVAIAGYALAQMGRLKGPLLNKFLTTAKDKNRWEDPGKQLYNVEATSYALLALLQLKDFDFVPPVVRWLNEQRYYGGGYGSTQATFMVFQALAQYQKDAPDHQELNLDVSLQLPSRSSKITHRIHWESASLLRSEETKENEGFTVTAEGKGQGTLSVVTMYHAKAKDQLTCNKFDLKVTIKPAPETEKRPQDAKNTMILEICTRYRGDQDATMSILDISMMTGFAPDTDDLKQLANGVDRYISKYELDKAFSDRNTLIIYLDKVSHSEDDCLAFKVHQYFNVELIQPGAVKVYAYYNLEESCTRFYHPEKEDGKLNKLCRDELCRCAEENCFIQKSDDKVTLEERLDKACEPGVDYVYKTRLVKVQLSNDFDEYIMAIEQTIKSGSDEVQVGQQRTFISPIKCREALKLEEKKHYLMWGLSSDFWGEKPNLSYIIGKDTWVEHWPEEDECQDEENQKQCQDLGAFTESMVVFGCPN
- assayComment: cell-based or functional assay
Numeric only. Scale: nM

{"binder": "MTSP-1 protease domain I41S/F97V/T98N/F99L/C122S/Q192S (enzyme) VVGGTDADEGEWPWQVSLHALGQGHSCGASLISPNWLVSAAHCYIDDRGFRYSDPTQWTAFLGLHDQSQRSAPGVQERRLKRIISHPFFNDVNLDYDIALLELEKPAEYSSMVRPISLPDASHVFPAGKAIWVTGWGHTQYGGTGALILQKGEIRVINQTTCENLLPQQITPRMMCVGFLSGGVDSCSGDSGGPLSSVEADGRIFQAGVVSWGDGCAQRNKPGVYTRLPLFRDWIKENTGV", "unitOfMeasure": "nM", "EC50 hC3 cleavage": 29.4}
{"binder": "MTSP-1 protease domain L36Q/Q38H/I41S/D60bT/F60eS/Y60gW/D96K/F97G/ins97aV/T98P/F99L/C122S/G151H/Q175L/Q192D (enzyme) VVGGTDADEGEWPWQVSLHAQGHGHSCGASLISPNWLVSAAHCYIDTRGSRWSDPTQWTAFLGLHDQSQRSAPGVQERRLKRIISHPFFNKGVPLDYDIALLELEKPAEYSSMVRPISLPDASHVFPAGKAIWVTGWGHTQYGGTHALILQKGEIRVINQTTCENLLPQLITPRMMCVGFLSGGVDSCDGDSGGPLSSVEADGRIFQAGVVSWGDGCAQRNKPGVYTRLPLFRDWIKENTGV", "unitOfMeasure": "nM", "EC50 hC3 cleavage": 5.49}
{"binder": "MTSP-1 protease domain I41S/F93L/ins97aV/C122S/Q192V/D217V (enzyme) VVGGTDADEGEWPWQVSLHALGQGHSCGASLISPNWLVSAAHCYIDDRGFRYSDPTQWTAFLGLHDQSQRSAPGVQERRLKRIISHPLFNDFVTFDYDIALLELEKPAEYSSMVRPISLPDASHVFPAGKAIWVTGWGHTQYGGTGALILQKGEIRVINQTTCENLLPQQITPRMMCVGFLSGGVDSCVGDSGGPLSSVEADGRIFQAGVVSWGVGCAQRNKPGVYTRLPLFRDWIKENTGV", "unitOfMeasure": "nM", "EC50 hC3 cleavage": 9.82}

Value of measured EC50 hC3 cleavage for the entry MTSP-1 protease domain Q38H/I41S/F60eS/Y60gW/ins97aV/F97D/T98P/F99L/C122S/G151H/Q175L/Q192E (enzyme) VVGGTDADEGEWPWQVSLHALGHGHSCGASLISPNWLVSAAHCYIDDRGSRWSDPTQWTAFLGLHDQSQRSAPGVQERRLKRIISHPFFNDDVPLDYDIALLELEKPAEYSSMVRPISLPDASHVFPAGKAIWVTGWGHTQYGGTHALILQKGEIRVINQTTCENLLPQLITPRMMCVGFLSGGVDSCEGDSGGPLSSVEADGRIFQAGVVSWGDGCAQRNKPGVYTRLPLFRDWIKENTGV : 3.83

Value of measured EC50 hC3 cleavage for the entry MTSP-1 protease domain Q38Y/I41S/D60bT/F60eR/Y60gW/D96M/T98G/F99L/C122S/G151N/Q175L/Q192D (enzyme) VVGGTDADEGEWPWQVSLHALGYGHSCGASLISPNWLVSAAHCYIDTRGRRWSDPTQWTAFLGLHDQSQRSAPGVQERRLKRIISHPFFNMFGLDYDIALLELEKPAEYSSMVRPISLPDASHVFPAGKAIWVTGWGHTQYGGTNALILQKGEIRVINQTTCENLLPQLITPRMMCVGFLSGGVDSCDGDSGGPLSSVEADGRIFQAGVVSWGDGCAQRNKPGVYTRLPLFRDWIKENTGV : 3.27
